Hello, the source for this data is patent US20220112296A1, in case you need it.

TARGET_OR_TEST_SYSTEM: T1, Human CD3eg linker (human)
T1 construct: CD3 epsilon and gamma subunits joined by a 29-mer linker, C-terminal Flag-tag (in the entry); also called recombinant human CD3
T1 chain: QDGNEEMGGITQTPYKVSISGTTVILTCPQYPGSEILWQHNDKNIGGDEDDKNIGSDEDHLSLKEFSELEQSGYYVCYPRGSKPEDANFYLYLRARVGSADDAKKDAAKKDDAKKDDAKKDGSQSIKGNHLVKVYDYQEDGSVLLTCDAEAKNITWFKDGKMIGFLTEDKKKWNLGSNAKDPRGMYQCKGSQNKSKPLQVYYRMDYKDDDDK
EXPERIMENT_NOTES: SPR Biacore T200, 25 C, Ab captured
pKd: −log10 of the molar value.
pKd values, listed per item
ENDPOINT: pKd

[[record]]
binder = "H1643L0581 (antibody, V domains shown, also called H1643L581; Dual) VH: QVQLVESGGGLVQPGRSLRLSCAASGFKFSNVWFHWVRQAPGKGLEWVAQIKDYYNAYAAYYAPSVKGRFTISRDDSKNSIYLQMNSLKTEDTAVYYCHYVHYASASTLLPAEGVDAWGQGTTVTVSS VL: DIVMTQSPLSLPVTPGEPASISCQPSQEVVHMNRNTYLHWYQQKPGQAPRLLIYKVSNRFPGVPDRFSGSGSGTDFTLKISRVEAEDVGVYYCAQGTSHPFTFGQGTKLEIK"
endpoint = "pKd"
value_reported = 6.54

[[record]]
binder = "H1673L0943 (antibody, V domains shown) VH: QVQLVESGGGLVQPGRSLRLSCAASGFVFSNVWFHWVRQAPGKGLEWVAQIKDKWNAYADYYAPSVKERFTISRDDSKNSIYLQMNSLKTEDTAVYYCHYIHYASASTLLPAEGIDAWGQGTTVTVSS VL: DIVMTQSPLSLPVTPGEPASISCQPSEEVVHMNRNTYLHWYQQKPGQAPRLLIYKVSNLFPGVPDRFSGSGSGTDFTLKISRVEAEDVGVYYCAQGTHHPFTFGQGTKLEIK"
endpoint = "pKd"
value_reported = 7.61

[[record]]
binder = "H1571L0581 (antibody, V domains shown) VH: QVQLVESGGGLVQPGRSLRLSCAASGFKFSNVWFHWVRQAPGKGLEWVAQIKDKYNAYATYYAPSVKGRFTISRDDSKNSIYLQMNSLKTEDTAVYYCHYVHYASASTLLPAFGVDAWGQGTTVTVSS VL: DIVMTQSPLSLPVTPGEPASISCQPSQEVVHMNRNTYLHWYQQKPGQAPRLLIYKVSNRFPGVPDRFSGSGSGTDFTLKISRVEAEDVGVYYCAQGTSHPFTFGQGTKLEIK"
endpoint = "pKd"
value_reported = 6.91

